Assay Text: A qHTS for Small Molecule Inhibitors of Shiga Toxin
Settings: Vero cells, Shiga toxin protein synthesis inhibition reporter; at 38.7 µM
The campaign covered roughly 290,000 compounds. About 27,000 (9.3%) were called active. Rule as the data show it: active = inhibition mostly above about 28% (no sharp cut-off); inactive = mostly below about 43%. Only a selection was taken, and actives are over-represented in it overall.
Labels: True (active), False (inactive)

INSERT INTO assay_data (structure_notation, assigned_label) VALUES
  ('CCOC(=O)C1CCN(Cc2c(C(=O)N3CCOCC3)nc3c(C)cccn23)CC1', 'False'),
  ('COc1c(C(C)C)oc2cc3oc(=O)ccc3cc12', 'False'),
  ('Cc1oc2cc3oc(=O)ccc3cc2c1C', 'True'),
  ('O=C(O)Cc1sc(-c2ccccc2)nc1-c1cccs1', 'False'),
  ('NC(=O)Cc1ccc2c(c1)[nH]c1ccccc12', 'False'),
  ('O=C(CCN1C(=O)[C@@H]2Cc3ccccc3CN2C1=O)NCCc1ccccc1', 'False');

Every entry's value here was drawn from PubChem BioAssay AID2315.
